Assay: CCTE_Padilla_ZF_Score.Craniofacial: CCTE's 144 Hour Post-fertilization zebrafish Assay Score for Craniofacial Malformation, Padilla Lab (AID 2284405)
Activity calls are given as the source filed them. Rule for the calls: active = hit-call score of the fitted dose curve at least 0.9, where 1 is the maximum; inactive = score below 0.9.

# compound, AC50
records = [
    ("FC(F)C(F)(F)COCC1CO1 (stereo unspecified)", "118 µM (active)"),
    ("FC(F)(F)C(F)(F)C(F)(F)C(F)(F)C(F)(F)C(F)(F)I", "inactive"),
    ("O=S(=O)(O)CCC(F)(F)C(F)(F)C(F)(F)C(F)(F)C(F)(F)C(F)(F)F", "inactive"),
    ("NCC(F)(F)C(F)(F)C(F)(F)C(F)(F)F", "inactive"),
    ("FC(F)(F)COC(OCC(F)(F)F)OCC(F)(F)F", "inactive"),
    ("OCCC(F)(F)C(F)(F)C(F)(F)C(F)(F)F", "inactive"),
]

---

Read-out: ABC Transporter (ABCB11), ABCB11 (gene 8647)
Assay: LTEA_HepaRG_ABCB11: Life Technologies and Expression Analysis (LTEA) Assay for ABC Transporter (ABCB11) using HepaRG (AID 2283463)
Conditions: mRNA level, 48 h; actives raise or lower the signal
The source made the active and inactive calls. Rule for the calls: active = hit-call score of the fitted dose curve at least 0.9, where 1 is the maximum; inactive = score below 0.9.
quantity name: AC50

# molecule, observed value
data = [
    ("CCc1cccc(CC)c1N", "inactive"),
    ("c1ccc2ncccc2c1", "inactive"),
    ("CC1(C)C(=O)N(Cl)C(=O)N1Cl", "inactive"),
    ("Cc1ccc(S(=O)(=O)NC(=O)NN2CCCCCC2)cc1", "inactive"),
    ("CC(C)CCCCCCOC(=O)C1CCCCC1C(=O)OCCCCCCC(C)C (stereo unspecified)", "inactive"),
    ("CCCCOC(=O)c1ccccc1", "inactive"),
    ("CCCCCCCCCCCCCCCCOS(=O)(=O)O", "41.1 µM (active)"),
    ("O=S(=O)(O)c1ccc(N=Nc2c(O)ccc3cc(S(=O)(=O)O)ccc23)cc1", "inactive"),
    ("CCCCN1C(=O)[C@@H]([C@H](O)C2CCCCC2)NC(=O)C12CCN(Cc1ccc(Oc3ccc(C(=O)O)cc3)cc1)CC2", "0.849 µM (active)"),
    ("Cc1nc(-c2ccccn2)ncc1C(=O)Nn1cc(C)c2cc(F)ccc21", "50 µM (active)"),
    ("C[C@]12C=CC(=O)C=C1CC[C@H]1[C@@H]3C[C@@H](O)[C@](O)(C(=O)CO)[C@@]3(C)C[C@H](O)[C@@]12F", "inactive"),
]

---

Read-out: Interleukin-1 alpha (IL1a), IL1A (gene 3552)
Test: BSK_IMphg_IL1a: BioMAP Diversity Plus: IMphg Assay for Interleukin-1 alpha (IL1a) Biomarker Activity (AID 2284290)
Settings: primary human endothelial cells with macrophages
Calls of active or inactive are those of the source. The calls were made as follows: active = hit-call score of the fitted dose curve at least 0.9, where 1 is the maximum; inactive = score below 0.9.
quantity name: outcome

# molecule, quantity name, observed value
rows = [
    ("NCC(F)(F)C(F)(F)C(F)(F)C(F)(F)F", "outcome", "inactive"),
    ("FC(F)(F)COC(OCC(F)(F)F)OCC(F)(F)F", "outcome", "inactive"),
    ("OC(O)(C(F)C(O)(O)C(F)(F)F)C(F)(F)F", "outcome", "inactive"),
    ("O=C(Cl)C(F)(F)C(F)(F)C(F)(F)C(=O)Cl", "outcome", "inactive"),
    ("OCCC(F)(F)C(F)(F)C(F)(F)C(F)(F)F", "outcome", "inactive"),
]
